- target: TGR2 (Homo sapiens)
- Sequence (Q8TDS7 whole entry): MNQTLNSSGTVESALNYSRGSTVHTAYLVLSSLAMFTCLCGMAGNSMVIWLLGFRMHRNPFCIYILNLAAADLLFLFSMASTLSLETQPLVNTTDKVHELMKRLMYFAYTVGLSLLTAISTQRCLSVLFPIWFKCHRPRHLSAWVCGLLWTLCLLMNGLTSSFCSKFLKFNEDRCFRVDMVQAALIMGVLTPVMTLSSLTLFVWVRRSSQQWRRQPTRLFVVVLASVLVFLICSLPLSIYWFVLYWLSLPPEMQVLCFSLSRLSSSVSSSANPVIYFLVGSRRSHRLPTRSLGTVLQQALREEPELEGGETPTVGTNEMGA
- test name: Aequorin assay, CHO cells transiently transfected with TGR2
- experimental parameters: CHO cells transiently transfected with TGR2; FIG. 1
pEC50: −log10 of the molar value.
endpoint name: pEC50

smiles_string=NCCC(=O)O reported=5.04

----------
- target: TGR18 (Homo sapiens)
- Sequence (Q9BXA5 with tags, fused parts or gaps limits assumed): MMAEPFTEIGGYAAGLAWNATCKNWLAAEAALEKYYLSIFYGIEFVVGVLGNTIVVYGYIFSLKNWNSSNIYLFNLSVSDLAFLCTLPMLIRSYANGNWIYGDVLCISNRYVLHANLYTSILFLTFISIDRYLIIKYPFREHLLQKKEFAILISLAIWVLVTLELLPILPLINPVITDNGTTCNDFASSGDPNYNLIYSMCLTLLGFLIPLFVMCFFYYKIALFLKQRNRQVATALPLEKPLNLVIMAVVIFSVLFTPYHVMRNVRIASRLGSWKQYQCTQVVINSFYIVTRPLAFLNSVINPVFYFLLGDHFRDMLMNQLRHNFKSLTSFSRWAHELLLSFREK
- test name: FLIPR intracellular calcium assay, 293 cells stably expressing TGR18
- experimental parameters: 293 cells stably expressing TGR18; FIG. 6B; read-out: EC50 of TGR18 activation in FLIPR assay
endpoint name: EC50

compound="O=C(O)CCC(=O)O [succinic acid]" reported="~27 µM"
